The reported measurements were obtained from ChEMBL document CHEMBL3714736.

Molecular target: PAS domain-containing serine/threonine-protein kinase (Homo sapiens)
Sequence (Q96RG2 whole entry, the tested form may be a part): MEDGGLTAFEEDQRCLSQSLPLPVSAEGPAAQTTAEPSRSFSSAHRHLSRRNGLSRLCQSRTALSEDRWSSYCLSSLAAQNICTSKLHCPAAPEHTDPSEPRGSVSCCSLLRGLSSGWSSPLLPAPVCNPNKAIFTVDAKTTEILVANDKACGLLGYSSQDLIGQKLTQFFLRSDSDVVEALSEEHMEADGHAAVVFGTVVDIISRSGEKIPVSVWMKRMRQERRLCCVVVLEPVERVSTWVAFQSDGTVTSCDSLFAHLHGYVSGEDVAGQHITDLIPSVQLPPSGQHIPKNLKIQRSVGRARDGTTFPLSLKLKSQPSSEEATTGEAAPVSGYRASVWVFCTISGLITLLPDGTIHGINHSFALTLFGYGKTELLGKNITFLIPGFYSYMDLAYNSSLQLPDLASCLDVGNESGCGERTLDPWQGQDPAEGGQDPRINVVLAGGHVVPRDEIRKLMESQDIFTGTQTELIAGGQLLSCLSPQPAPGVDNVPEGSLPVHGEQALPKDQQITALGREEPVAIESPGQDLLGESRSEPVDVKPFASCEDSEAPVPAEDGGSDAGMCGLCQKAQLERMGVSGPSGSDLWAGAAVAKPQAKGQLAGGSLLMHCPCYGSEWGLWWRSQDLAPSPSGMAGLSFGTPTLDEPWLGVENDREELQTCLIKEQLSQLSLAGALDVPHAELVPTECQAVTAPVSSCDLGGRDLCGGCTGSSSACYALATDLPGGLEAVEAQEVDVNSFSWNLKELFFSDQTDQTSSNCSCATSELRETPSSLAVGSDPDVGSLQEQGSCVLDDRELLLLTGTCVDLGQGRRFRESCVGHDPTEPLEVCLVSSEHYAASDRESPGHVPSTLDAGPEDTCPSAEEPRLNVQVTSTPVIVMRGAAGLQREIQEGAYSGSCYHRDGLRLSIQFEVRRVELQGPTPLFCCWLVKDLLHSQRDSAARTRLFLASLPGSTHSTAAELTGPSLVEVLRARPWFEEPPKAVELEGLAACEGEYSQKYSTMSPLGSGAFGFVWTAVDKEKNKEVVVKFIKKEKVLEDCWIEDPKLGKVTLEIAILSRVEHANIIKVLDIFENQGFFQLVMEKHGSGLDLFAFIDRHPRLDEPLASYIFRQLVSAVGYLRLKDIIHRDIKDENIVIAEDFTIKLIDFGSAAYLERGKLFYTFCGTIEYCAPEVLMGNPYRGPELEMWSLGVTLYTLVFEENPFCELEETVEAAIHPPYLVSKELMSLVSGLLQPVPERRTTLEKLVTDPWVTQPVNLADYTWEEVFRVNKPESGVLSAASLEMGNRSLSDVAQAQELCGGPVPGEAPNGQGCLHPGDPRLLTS
Assay: Inhibition of N-terminal GST-tagged human recombinant PASK kinase domain (879 to 1323 residues) expressed in insect cells using MBP protein substrate incubated for 120 mins in presence of [33P]ATP by scintillation counting based radiochemical assay
measurement_type: IC50

Inquiry: What is its IC50 for PAS domain-containing serine/threonine-protein kinase (Homo sapiens)? Entry: CN(C1CCN(c2nc3cc(C(=O)O)ccc3nc2-c2ccccc2)CC1)S(C)(=O)=O
Reply text: ≤ 10 µM

====

Target: PAS domain-containing serine/threonine-protein kinase (Homo sapiens)
Experiment: Inhibition of human recombinant PASK using Ulight-peptide substrate incubated for 2 hrs by TR-FRET assay
pIC50: −log10 of the molar value.
measurement_type: pIC50

Inquiry: Entry O=C(O)c1ccc2nc(-c3ccc4c(c3)OCO4)c(N3CCCc4ccccc43)nc2c1 has what pIC50?
Reply text: ≥ 5.00

Inquiry: Entry CC(C)N(C)c1nc2cc(C(=O)O)ccc2nc1-c1ccc2nccn2c1 has what pIC50?
Reply text: ≥ 5.00
